# Target entity: Rat NHE3 (Rattus norvegicus, UniProt P26433)
# Construct: expressed in transfected cells; host or cells: Opossum kidney (OK) cells (ATCC), electroporation
# Sequence (P26433 29-831): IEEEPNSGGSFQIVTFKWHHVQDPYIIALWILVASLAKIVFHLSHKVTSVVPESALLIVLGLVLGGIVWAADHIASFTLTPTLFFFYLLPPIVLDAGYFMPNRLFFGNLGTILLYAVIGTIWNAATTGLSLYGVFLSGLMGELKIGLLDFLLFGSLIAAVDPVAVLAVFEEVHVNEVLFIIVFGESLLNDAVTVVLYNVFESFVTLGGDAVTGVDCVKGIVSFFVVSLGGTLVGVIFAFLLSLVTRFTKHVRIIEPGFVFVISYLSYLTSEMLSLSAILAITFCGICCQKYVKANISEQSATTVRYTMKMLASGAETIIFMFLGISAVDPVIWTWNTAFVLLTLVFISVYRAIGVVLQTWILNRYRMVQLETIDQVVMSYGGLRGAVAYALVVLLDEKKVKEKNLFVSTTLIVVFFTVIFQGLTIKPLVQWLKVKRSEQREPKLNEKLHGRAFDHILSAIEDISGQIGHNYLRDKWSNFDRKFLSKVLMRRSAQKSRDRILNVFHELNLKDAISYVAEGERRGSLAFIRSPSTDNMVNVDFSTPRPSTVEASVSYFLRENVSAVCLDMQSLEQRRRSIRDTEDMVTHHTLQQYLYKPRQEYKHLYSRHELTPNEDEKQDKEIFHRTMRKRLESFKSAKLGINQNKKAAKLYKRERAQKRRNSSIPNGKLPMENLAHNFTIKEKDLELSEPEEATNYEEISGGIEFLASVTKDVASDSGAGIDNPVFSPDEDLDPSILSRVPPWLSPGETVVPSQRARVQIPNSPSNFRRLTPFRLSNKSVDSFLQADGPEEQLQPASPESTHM
# Experiment notes: Cell-based NHE3 activity under prompt conditions (OK cells, BCECF pH recovery), rat NHE3
# Condition summary: prompt conditions
Measure name: Prompt Rat NHE3 pIC50

* CN1Cc2c(Cl)cc(Cl)cc2C(c2cccc(S(=O)(=O)NCCOCCOCCOCCNC(=O)CCC(CCC(=O)NCCOCCOCCOCCNS(=O)(=O)c3cccc([C@@H]4CN(C)Cc5c(Cl)cc(Cl)cc54)c3)(CCC(=O)NCCOCCOCCOCCNS(=O)(=O)c3cccc([C@@H]4CN(C)Cc5c(Cl)cc(Cl)cc54)c3)NCc3ccc(-c4ccc(Cl)cc4)cc3)c2)C1 (stereo in doubt) [compound 114] | <5.00
* CN(C)[C@H]1Cc2ccc(F)cc2[C@@H]1Oc1ccc(S(=O)(=O)NCCOCCOCCNC(=O)NCCCCNC(=O)NCCOCCOCCNS(=O)(=O)c2ccc(O[C@H]3c4cc(F)ccc4C[C@@H]3N(C)C)cc2)cc1 [compound 136] | <5.00
* CN1Cc2c(Cl)cc(Cl)cc2[C@H](c2cccc(S(=O)(=O)NCCOCCOCCNC(=O)NCCN(CCNC(=O)NCCOCCOCCNS(=O)(=O)c3cccc([C@@H]4CN(C)Cc5c(Cl)cc(Cl)cc54)c3)C(=O)CCOCCOCCOCCOCCOCCOCCOCCOCCOCCC(=O)N(CCNC(=O)NCCOCCOCCNS(=O)(=O)c3cccc([C@@H]4CN(C)Cc5c(Cl)cc(Cl)cc54)c3)CCNC(=O)NCCOCCOCCNS(=O)(=O)c3cccc([C@@H]4CN(C)Cc5c(Cl)cc(Cl)cc54)c3)c2)C1 [compound 95] | 6.60
* CN1Cc2c(Cl)cc(Cl)cc2[C@H](c2cccc(S(=O)(=O)NCCOCCOCCNC(=O)CCC(CCC(=O)NCCOCCOCCNS(=O)(=O)c3cccc([C@@H]4CN(C)Cc5c(Cl)cc(Cl)cc54)c3)(CCC(=O)NCCOCCOCCNS(=O)(=O)c3cccc([C@@H]4CN(C)Cc5c(Cl)cc(Cl)cc54)c3)NC(=O)NCCS(=O)(=O)O)c2)C1 [compound 157] | 7.70
* NCCOCCOCCOc1ccc(-c2nc(N=C(N)N)nc3ccc(Cl)cc23)cc1 [compound 11] | 6.95
* CN1Cc2c(Cl)cc(Cl)cc2[C@H](c2cccc(S(=O)(=O)NCCOCCOCCOCCNC(=O)CN(CC(=O)NCCOCCOCCOCCNS(=O)(=O)c3cccc([C@@H]4CN(C)Cc5c(Cl)cc(Cl)cc54)c3)[C@@H]3CCCC[C@H]3N(CC(=O)NCCOCCOCCOCCNS(=O)(=O)c3cccc([C@@H]4CN(C)Cc5c(Cl)cc(Cl)cc54)c3)CC(=O)NCCOCCOCCOCNS(=O)(=O)c3cccc([C@@H]4CN(C)Cc5c(Cl)cc(Cl)cc54)c3)c2)C1 [compound 71] | 6.50
* CN1Cc2c(Cl)cc(Cl)cc2[C@H](c2cccc(S(=O)(=O)NCCOCCOCCOCCNC(=O)c3cc(C(=O)NCCOCCOCCOCCNS(=O)(=O)c4cccc([C@@H]5CN(C)Cc6c(Cl)cc(Cl)cc65)c4)cc(C(=O)NCCOCCOCCOCCNS(=O)(=O)c4cccc([C@@H]5CN(C)Cc6c(Cl)cc(Cl)cc65)c4)c3)c2)C1 [compound 56] | 6.90
* CN1Cc2c(Cl)cc(Cl)cc2[C@H](c2cccc(S(=O)(=O)NCCOCCOCCNC(=O)CC(O)(CC(=O)NCCOCCOCCNS(=O)(=O)c3cccc([C@@H]4CN(C)Cc5c(Cl)cc(Cl)cc54)c3)C(=O)NCCOCCOCCNS(=O)(=O)c3cccc([C@@H]4CN(C)Cc5c(Cl)cc(Cl)cc54)c3)c2)C1 [compound 78] | 6.00
* O=C(NCCCCNC(=O)NCCOCCOCCNS(=O)(=O)c1ccc(O[C@H]2c3cc(F)ccc3C[C@@H]2N2CCCCC2)cc1)NCCOCCOCCNS(=O)(=O)c1ccc(O[C@H]2c3cc(F)ccc3C[C@@H]2N2CCCCC2)cc1 [compound 140] | 8.90
* CN(CC(=O)NCCOCCOCCNC(=O)NCCOCCOCCOCCOc1cccc(-c2nc(NC(=N)N)nc3ccc(Cl)cc23)c1)CC(=O)NCCOCCOCCNC(=O)NCCOCCOCCOCCOc1cccc(-c2nc(NC(=N)N)nc3ccc(Cl)cc23)c1 [compound 43] | 7.50
* O=C(NCCCCNC(=O)NCCOCCOCCNC(=O)Nc1cccc(O[C@H]2c3ccccc3C[C@@H]2N2CCCCC2)c1)NCCOCCOCCNC(=O)Nc1cccc(O[C@H]2c3ccccc3C[C@@H]2N2CCCCC2)c1 [compound 126] | <5.00
* C/C(=C\c1cc(F)c(Oc2ccc(S(=O)(=O)NCCOCCOCCOCCNC(=O)[C@H](O)[C@@H](O)C(=O)NCCOCCOCCOCCNS(=O)(=O)c3ccc(Oc4c(F)cc(/C=C(\C)C(=O)N=C(N)N)cc4F)cc3)cc2)c(F)c1)C(=O)N=C(N)N [compound 5] | 6.90
* C/C(=C\c1cc(F)c(Oc2ccc(S(=O)(=O)NCCOCCOCCOCCNC(=O)CN(CCN(CC(=O)O)CC(=O)NCCOCCOCCOCCNS(=O)(=O)c3ccc(Oc4c(F)cc(/C=C(\C)C(=O)N=C(N)N)cc4F)cc3)CC(=O)O)cc2)c(F)c1)C(=O)N=C(N)N [compound 27] | 7.50
* O=C(NCCOCCOCCNS(=O)(=O)c1ccc(O[C@H]2c3ccccc3C[C@@H]2N2CCCCC2)cc1)c1ccc(C(=O)NCCOCCOCCNS(=O)(=O)c2ccc(O[C@H]3c4ccccc4C[C@@H]3N3CCCCC3)cc2)cc1 [compound 100] | 8.10
